Test system: MCF7 (ATCC HTB-22) human breast cancer cell line
Test: MTT cytotoxic assay against MCF7 (96 h)
Format: cell-based
Details: Homo sapiens, MCF7, 96 h, read-out: IC50 (ng/mL) MCF7
// assign y if IC50 falls strictly below 6 ng/mL, else n (ties count as n)

A selection of reference data follows.
C=CC(C)CC1NC(=O)C(C(O)C(C)C)N(C)C(=O)C(C)N(C)C(=O)C(C(C)C)NC(=O)C(C(O)C(C)C)NC(=O)C2CCCCN2C(=O)C(C)N(C)C1=O (centres unmarked)	n
C=CC(C)CC1NC(=O)C(C(O)C(C)C)N(C)C(=O)C(C)N(C)C(=O)C(C(C)CC)NC(=O)C(C(O)C(C)C)NC(=O)C2CCCCN2C(=O)C(C)N(C)C1=O (centres unmarked)	y
C=CC(C)CC1NC(=O)C(C(O)C(C)CC)N(C)C(=O)C(C)N(C)C(=O)C(C(C)CC)NC(=O)C(C(O)C(C)C)NC(=O)C2CCCCN2C(=O)C(C)N(C)C1=O (centres unmarked)	y
CCC(C)C1NC(=O)C(C(O)C(C)C)NC(=O)C2CCCCN2C(=O)C(C)N(C)C(=O)C(CC(C)C)NC(=O)C(C(O)C(C)C)N(C)C(=O)C(C)N(C)C1=O (centres unmarked)	n

Then there is this compound:
Inquiry: Please check: IC50 for CCC(C)CC1NC(=O)C(C(O)C(C)C)N(C)C(=O)C(C)N(C)C(=O)C(C(C)CC)NC(=O)C(C(O)C(C)C)NC(=O)C2CCCCN2C(=O)C(C)N(C)C1=O (centres unmarked) , strictly under 6 ng/mL or not?
Reply text: y

* * *

Tested on: MCF7 (ATCC HTB-22) human breast cancer cell line
Test: MTT cytotoxic assay against MCF7 (96 h)
Format: cell-based
Settings: Homo sapiens, MCF7, 96 h, read-out: IC50 (nM) MCF7
measurement.label: IC50 (nM)
Give bare numbers, in nM.

Some molecules with recorded IC50:
C=CC(C)CC1NC(=O)C(C(O)C(C)CC)N(C)C(=O)C(C)N(C)C(=O)C(C(C)CC)NC(=O)C(C(O)C(C)C)NC(=O)C2CCCCN2C(=O)C(C)N(C)C1=O (centres unmarked) [Compound A5]	1
C=CC(C)CC1NC(=O)C(C(O)C(C)C)N(C)C(=O)C(C)N(C)C(=O)C(C(C)CC)NC(=O)C(C(O)C(C)C)NC(=O)C2CCCCN2C(=O)C(C)N(C)C1=O (centres unmarked) [Compound A3]	0.9

Lab note: each molecule below needs its IC50 filled in.
1. CCC(C)C1NC(=O)C(C(O)C(C)C)NC(=O)C2CCCCN2C(=O)C(C)N(C)C(=O)C(CC(C)C)NC(=O)C(C(O)C(C)C)N(C)C(=O)C(C)N(C)C1=O (centres unmarked) [Compound A2]
2. C=CC(C)CC1NC(=O)C(C(O)C(C)C)N(C)C(=O)C(C)N(C)C(=O)C(C(C)C)NC(=O)C(C(O)C(C)C)NC(=O)C2CCCCN2C(=O)C(C)N(C)C1=O (centres unmarked) [Compound A1]
3. CCC(C)CC1NC(=O)C(C(O)C(C)C)N(C)C(=O)C(C)N(C)C(=O)C(C(C)CC)NC(=O)C(C(O)C(C)C)NC(=O)C2CCCCN2C(=O)C(C)N(C)C1=O (centres unmarked) [Compound A4]

Reply text:
1. 8.3
2. 8.1
3. 7.1
